- System: human eosinophils
- assay.explanation: Eosinophil shape change in human PMNL by flow cytometry (GAFS assay)
- Format: cell-based
- experimental.setup: Homo sapiens, Eosinophil; 1 μM histamine, FIG. 4B; read-out: IC50 in blocking 1 μM histamine-induced eosinophil shape change
Examples of compounds with documented pIC50 follow.
Keep in mind that pIC50 stands for -log10 of concentration in molar terms.

>  <compound>
CN1CCN(C(=O)c2cc3cc(Cl)ccc3[nH]2)CC1

>  <pIC50>
6.57

$$$$

**Q:** Fill in the blank: the reported pIC50 of S=C(NC1CCCCC1)N1CCC(c2cnc[nH]2)CC1 [thioperamide] is ____.
**A:** 6.89
